Tested system: isolated recombinant JAK2 kinase domain (Homo sapiens)
Construct: isolated recombinant JAK1 and JAK2 kinase domain
Sequence (O60674 849-1124 limits assumed): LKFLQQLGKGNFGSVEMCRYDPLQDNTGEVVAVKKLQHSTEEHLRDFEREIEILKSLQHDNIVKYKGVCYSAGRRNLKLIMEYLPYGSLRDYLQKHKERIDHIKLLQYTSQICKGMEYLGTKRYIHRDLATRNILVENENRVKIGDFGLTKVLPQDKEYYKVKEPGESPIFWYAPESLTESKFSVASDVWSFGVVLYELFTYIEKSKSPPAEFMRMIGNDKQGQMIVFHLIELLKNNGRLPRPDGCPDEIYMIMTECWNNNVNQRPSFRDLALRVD
Assay explanation: JAK enzyme assay, JAK2 kinase domain (Caliper LabChip)
Study conditions: 0.2 nM JAK2, ATP 25 μM, Morrison tight binding model
Provide the recorded pKi for the entries that follow.
One number for each entry, as −log10 of the molar value.

Use these answered entries as a reference point.
smiles_entry=N#CCC1(n2cc(C(F)(F)F)cn2)CN(c2cccn3nc(Nc4ccc5c(c4)CCN(C4COC4)C5)nc23)C1 result_number=8.36
smiles_entry=Cc1cnn(C2(CC#N)CN(c3cccn4nc(Nc5cnn(CC(=O)N6CCN(C)CC6)c5)nc34)C2)c1 result_number=8.82
smiles_entry=CCc1cnn(C2(CC#N)CN(c3cccn4nc(Nc5ccc(C(=O)N(C)CC6CCN(C)CC6)cc5)nc34)C2)c1 result_number=9.52

Can you look up the measured pKi of `CN1CCN(C(=O)Cn2cc(Nc3nc4c(N5CC(CC#N)(N6CCN(C)CC6)C5)cccn4n3)cn2)CC1` for me?
8.60

Sourced from patent US20230242530A1
